- System: HDQ-P1
- conditions: 72 h
measurement-kind: EC50, CellTiter-Glo

molecule="O=C(Nc1c[nH]nc1-c1nc2ccc(CN3CCOCC3)cc2[nH]1)NC1CC1 [AT9283]" observed_result="303 nM"
molecule="Cc1c(CN2CCN(C(=O)[C@H](C)O)CC2)sc2c(N3CCOCC3)nc(-c3cnc(N)nc3)nc12 [GDC-0980]" observed_result="452 nM"
molecule="CC(=O)OC[C@H]1O[C@@H]([S-])[C@H](OC(C)=O)[C@@H](OC(C)=O)[C@@H]1OC(C)=O.CCP(CC)CC.[Au+] [Auranofin]" observed_result="1120 nM"
molecule="O=C(NC[C@H](O)CO)c1ccncc1Nc1ccc(I)cc1F [Pimasertib]" observed_result="18.6 nM"

* * *

Listed compounds paired with reported normalised response
- Tested on: HCC1599
- assay-comment: normalised response (% of control), CellTiter-Glo; higher = more viable cells (100 = DMSO, 0 = benzethonium chloride kill control)
- conditions: incubation time: 72 h
measurement-kind: normalised response (%)

compound="CCCCC/C=C/C=C1/C(=O)C=C[C@@H]1C/C=C\\CCCC(=O)O [15D-PGJ2] (8 nM)" measurement_kind="normalised response" observed_result=86.3
compound="CC(=O)OC[C@H]1O[C@@H]([S-])[C@H](OC(C)=O)[C@@H](OC(C)=O)[C@@H]1OC(C)=O.CCP(CC)CC.[Au+] [Auranofin] (25 nM)" measurement_kind="normalised response" observed_result=89.1
compound="c1cc(CN2CCCNCCNCCCNCC2)ccc1CN1CCCNCCNCCCNCC1 [Plerixafor] (100 nM)" measurement_kind="normalised response" observed_result=95.3
compound="O=C(CCBr)N1CCN(C(=O)CCBr)CC1 [Pipobroman] (100 nM)" measurement_kind="normalised response" observed_result=115
compound="Cc1ccc(Nc2nccc(N(C)c3ccc4c(C)n(C)nc4c3)n2)cc1S(N)(=O)=O [Pazopanib] (100 nM)" measurement_kind="normalised response" observed_result=103

* * *

Listed compounds paired with reported normalised viability
- Tested on: CAL-148
- assay-comment: normalised viability (% of control), CellTiter-Blue; higher = more viable cells (100 = DMSO, 0 = benzethonium chloride kill control)
- conditions: 1 nM; incubation time: 72 h
measurement-kind: normalised viability (%)

compound="C[C@]12C=CC(=O)C=C1CC[C@@H]1[C@@H]2[C@@H](O)C[C@@]2(C)[C@H]1CC[C@]2(O)C(=O)CO [Prednisolone]" measurement_kind="normalised viability" endpoint_unit=% observed_result=111
compound="Cc1ccc(Nc2nccc(N(C)c3ccc4c(C)n(C)nc4c3)n2)cc1S(N)(=O)=O [Pazopanib]" measurement_kind="normalised viability" endpoint_unit=% observed_result=89.3
compound="CS(=O)(=O)N1CCN(Cc2cc3nc(-c4cccc5[nH]ncc45)nc(N4CCOCC4)c3s2)CC1 [GDC-0941]" measurement_kind="normalised viability" endpoint_unit=% observed_result=100
compound="Nc1ccccc1NC(=O)c1ccc(CNc2nccc(-c3cccnc3)n2)cc1 [Mocetinostat]" measurement_kind="normalised viability" endpoint_unit=% observed_result=107
compound="Cc1c(CN2CCN(C(=O)[C@H](C)O)CC2)sc2c(N3CCOCC3)nc(-c3cnc(N)nc3)nc12 [GDC-0980]" measurement_kind="normalised viability" endpoint_unit=% observed_result=106

* * *

- Tested on: HDQ-P1
- assay-comment: normalised viability (% of control), CellTiter-Blue; higher = more viable cells (about 100 = DMSO control)
- conditions: incubation time: 72 h
measurement-kind: normalised viability (%)

molecule="Cc1ccc(Nc2nccc(N(C)c3ccc4c(C)n(C)nc4c3)n2)cc1S(N)(=O)=O [Pazopanib] (1000 nM)" endpoint_unit=% observed_result=99.8
molecule="COc1ccc(-c2cc3c(C)nc(N)nc3n([C@H]3CC[C@H](OCCO)CC3)c2=O)cn1 (1000 nM)" endpoint_unit=% observed_result=12.2
molecule="COc1cc(CCc2cc(NC(=O)c3ccc(N4CC(C)NC(C)C4)cc3)n[nH]2)cc(OC)c1 (centres undefined) [AZD4547] (100 nM)" endpoint_unit=% observed_result=106
molecule="CS(=O)(=O)N1CCN(Cc2cc3nc(-c4cccc5[nH]ncc45)nc(N4CCOCC4)c3s2)CC1 [GDC-0941] (1000 nM)" endpoint_unit=% observed_result=25

* * *

- System: CAL-148
- conditions: 72 h
measurement-kind: EC50, CellTiter-Blue viability (µM)

compound="CO[C@@H](C(=O)N1Cc2[nH]nc(NC(=O)c3ccc(N4CCN(C)CC4)cc3)c2C1)c1ccccc1 [Danusertib]" test_target=CAL-148 observed_result=0.0216
compound="Nc1ccccc1NC(=O)c1ccc(CNc2nccc(-c3cccnc3)n2)cc1 [Mocetinostat]" test_target=CAL-148 observed_result=1.79
compound=COc1ccc(-c2cc3c(C)nc(N)nc3n([C@H]3CC[C@H](OCCO)CC3)c2=O)cn1 test_target=CAL-148 observed_result=0.246
compound="CS(=O)(=O)N1CCN(Cc2cc3nc(-c4cccc5[nH]ncc45)nc(N4CCOCC4)c3s2)CC1 [GDC-0941]" test_target=CAL-148 observed_result=0.96
compound="CC[C@@]1(O)C(=O)OCc2c1cc1n(c2=O)Cc2cc3c(CN(C)C)c(O)ccc3nc2-1 [Topotecan]" test_target=CAL-148 observed_result=0.0637

* * *

- Tested on: CAL-148
- assay-comment: drug sensitivity score (DSS), CellTiter-Blue viability (DSS (AUC-based score)); higher = stronger viability inhibition; extreme values may be limits of the assay
- conditions: incubation time: 72 h
Listed compounds paired with reported drug sensitivity score
measurement-kind: drug sensitivity score

compound="CCN(CC)CCNC(=O)c1c(C)[nH]c(/C=C2\\C(=O)Nc3ccc(F)cc32)c1C [Sunitinib]" observed_result=0
compound="C[C@]12C=CC(=O)C=C1CC[C@@H]1[C@@H]2[C@@H](O)C[C@@]2(C)[C@H]1CC[C@]2(O)C(=O)CO [Prednisolone]" observed_result=0
compound=Cn1cc(CNCC2CCN(c3ncc(C(=O)NO)cn3)CC2)c2ccccc21 observed_result=22.6
compound="O=C(Nc1c[nH]nc1-c1nc2ccc(CN3CCOCC3)cc2[nH]1)NC1CC1 [AT9283]" observed_result=7.72
compound="O=C1c2c(O)ccc(O)c2C(=O)c2c(NCCNCCO)ccc(NCCNCCO)c21 [Mitoxantrone]" observed_result=17.4
compound="Nc1nc(=O)c2c([nH]1)NCC(CNc1ccc(C(=O)N[C@@H](CCC(=O)O)C(=O)O)cc1)N2C=O (mixture of isomers) [Folinic acid]" observed_result=0
compound="COc1cc(CCc2cc(NC(=O)c3ccc(N4CC(C)NC(C)C4)cc3)n[nH]2)cc(OC)c1 (centres undefined) [AZD4547]" observed_result=2.37
compound="CCC/C=C/C=C/C(=O)O[C@H]1/C(=C/C(=O)OC)C[C@H]2C[C@H]([C@@H](C)O)OC(=O)C[C@H](O)C[C@@H]3C[C@H](OC(C)=O)C(C)(C)[C@](O)(C[C@@H]4C/C(=C/C(=O)OC)C[C@H](/C=C/C(C)(C)[C@]1(O)O2)O4)O3 [Bryostatin 1]" observed_result=16.1
compound="c1cc(CN2CCCNCCNCCCNCC2)ccc1CN1CCCNCCNCCCNCC1 [Plerixafor]" observed_result=0

* * *

Listed molecules paired with reported drug sensitivity score
- Test system: BT-474
- assay-comment: drug sensitivity score (DSS), CellTiter-Blue viability (DSS (AUC-based score)); higher = stronger viability inhibition; extreme values may be limits of the assay
- conditions: incubation time: 72 h
measurement-kind: drug sensitivity score

molecule="COc1cc(CCc2cc(NC(=O)c3ccc(N4CC(C)NC(C)C4)cc3)n[nH]2)cc(OC)c1 (stereo unspecified)" measurement_kind="drug sensitivity score" observed_result=0
molecule=O=S(=O)(c1cccc2cnccc12)N1CCCNCC1 measurement_kind="drug sensitivity score" observed_result=0
molecule=C[C@]12O[C@H](C[C@]1(O)CO)n1c3ccccc3c3c4c(c5c6ccccc6n2c5c31)CNC4=O measurement_kind="drug sensitivity score" observed_result=0
molecule=Cc1ccc(Nc2nccc(N(C)c3ccc4c(C)n(C)nc4c3)n2)cc1S(N)(=O)=O measurement_kind="drug sensitivity score" observed_result=0
molecule=O=C1c2c(O)ccc(O)c2C(=O)c2c(NCCNCCO)ccc(NCCNCCO)c21 measurement_kind="drug sensitivity score" observed_result=6.48
molecule=CCN(CC)CCNC(=O)c1c(C)[nH]c(/C=C2\C(=O)Nc3ccc(F)cc32)c1C measurement_kind="drug sensitivity score" observed_result=0

* * *

Listed molecules paired with reported drug sensitivity score
- System: BT-549
- assay-comment: drug sensitivity score (DSS), CellTiter-Glo (DSS (AUC-based score)); higher = stronger drug effect (viability inhibition or cytotoxicity); extreme values may be limits of the assay
- conditions: incubation time: 72 h
measurement-kind: drug sensitivity score

molecule=O=C(CCBr)N1CCN(C(=O)CCBr)CC1 observed_result=0
molecule="COc1cc(CCc2cc(NC(=O)c3ccc(N4CC(C)NC(C)C4)cc3)n[nH]2)cc(OC)c1 (stereo not given)" observed_result=0.487
molecule=C[C@]12O[C@H](C[C@]1(O)CO)n1c3ccccc3c3c4c(c5c6ccccc6n2c5c31)CNC4=O observed_result=7.26
molecule=O=C(Nc1c[nH]nc1-c1nc2ccc(CN3CCOCC3)cc2[nH]1)NC1CC1 observed_result=4.94
molecule=CO[C@@H](C(=O)N1Cc2[nH]nc(NC(=O)c3ccc(N4CCN(C)CC4)cc3)c2C1)c1ccccc1 observed_result=10.7
